Parameter fraction unbound at 20 h, 5 μM: see the listing below.
TARGET_OF_ASSAY: Human serum albumin (HSA) (Homo sapiens, UniProt P02768)
Sequence (P02768 25-609): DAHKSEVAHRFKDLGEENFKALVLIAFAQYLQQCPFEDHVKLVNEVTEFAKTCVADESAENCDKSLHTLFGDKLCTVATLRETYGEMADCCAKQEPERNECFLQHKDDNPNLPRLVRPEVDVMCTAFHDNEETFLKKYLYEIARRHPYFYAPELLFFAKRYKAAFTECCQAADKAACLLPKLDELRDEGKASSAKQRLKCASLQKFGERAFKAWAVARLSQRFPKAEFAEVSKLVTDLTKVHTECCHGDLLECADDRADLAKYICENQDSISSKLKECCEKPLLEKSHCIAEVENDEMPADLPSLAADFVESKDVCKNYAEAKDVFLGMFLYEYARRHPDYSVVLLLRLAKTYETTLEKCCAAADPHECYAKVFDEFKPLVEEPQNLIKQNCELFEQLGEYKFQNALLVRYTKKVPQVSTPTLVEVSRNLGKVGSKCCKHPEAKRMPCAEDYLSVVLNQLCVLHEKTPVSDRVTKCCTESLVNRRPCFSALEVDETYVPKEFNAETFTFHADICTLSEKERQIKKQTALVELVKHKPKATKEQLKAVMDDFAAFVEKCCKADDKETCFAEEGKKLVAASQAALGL
MEASUREMENT_DESCRIPTION: HSA-Binding Assay (equilibrium dialysis, LC-MS/MS)
SETTINGS: isolated protein

The examples below pair each entry with its known result.
COMPOUND	fraction unbound at 20 h, 5 μM
CCCCC(NC(=O)CCC(=O)O[C@]1(CC)C(=O)OCc2c1cc1n(c2=O)Cc2c-1nc1ccc(O)cc1c2CC)C(=O)O (stereo partly drawn)	0.016
CCc1c2c(nc3ccc(O)cc13)-c1cc3c(c(=O)n1C2)COC(=O)[C@@]3(CC)OC(=O)CCC(=O)N[C@@H](CC(C)C)C(=O)O	0.03

Req: // fraction unbound at 20 h, 5 μM lookup, key: CCCCCCC(NC(=O)CCC(=O)Oc1ccc2nc3c(c(CC)c2c1)Cn1c-3cc2c(c1=O)COC(=O)[C@@]2(CC)OC(=O)CCC(=O)NC(CCCCCC)C(=O)O)C(=O)O (stereo partly drawn)
Resp: < 0.023

Req: For CCCCC(NC(=O)CCC(=O)Oc1ccc2nc3c(c(CC)c2c1)Cn1c-3cc2c(c1=O)COC(=O)[C@@]2(CC)OC(=O)CCC(=O)NC(CCCC)C(=O)O)C(=O)O (stereo partly drawn) then?
Resp: < 0.168

Req: For CCCCCCCCCCCCCCCCC(NC(=O)CCC(=O)O[C@]1(CC)C(=O)OCc2c1cc1n(c2=O)Cc2c-1nc1ccc(O)cc1c2CC)C(=O)O (stereo partly drawn) then?
Resp: < 0.001

Req: For `CCc1c2c(nc3ccc(OC(=O)CCC(=O)N[C@@H](CC(C)C)C(=O)O)cc13)-c1cc3c(c(=O)n1C2)COC(=O)[C@@]3(CC)OC(=O)CCC(=O)N[C@@H](CC(C)C)C(=O)O` then?
Resp: < 0.022
